target: CB2 receptor (Homo sapiens); construct: expressed in transfected cells; test: Calcium mobilization assay, agonist mode, CHO expressing CB2 and Gα16; format: cell-based; conditions: single independent experiment, replicate 3; read-out: CB2 agonist(μM) replicate3
measuredProperty: log10(EC50) (log10 of the value in µM)
Parameter value (number): base-10 log of EC50 in µM.

Query the reported log10(EC50) for CB2 receptor (Homo sapiens); item: `COc1ccc(C=C2SC(=O)N(C(C)C)C2=O)cc1OC(=O)C(C)(C)CCl`
0.88

Query the reported log10(EC50) for CB2 receptor (Homo sapiens); item: `CC(C)N1C(=O)SC(=Cc2ccccc2OC(=O)C(C)(C)CCl)C1=O`
0.47

Query the reported log10(EC50) for CB2 receptor (Homo sapiens); item: `CC(C)N1C(=O)SC(=Cc2ccccc2OC(=O)c2ccc(Cl)nc2)C1=O`
0.19

Query the reported log10(EC50) for CB2 receptor (Homo sapiens); item: `CC(C)N1C(=O)SC(=Cc2ccccc2OCc2ccccc2C#N)C1=O`
-0.86

Query the reported log10(EC50) for CB2 receptor (Homo sapiens); item: `COc1ccc(/C=C2\SC(=O)N(C(C)C)C2=O)cc1OC(=O)C12CC3CC(CC(C3)C1)C2`
0.33

Query the reported log10(EC50) for CB2 receptor (Homo sapiens); item: `CC(C)N1C(=O)S/C(=C\c2ccccc2OC(=O)c2ccccc2F)C1=O`
0.14

Query the reported log10(EC50) for CB2 receptor (Homo sapiens); item: `CC(C)CN1C(=O)SC(=Cc2ccccc2OCc2ccccc2C#N)C1=O`
-0.17

Query the reported log10(EC50) for CB2 receptor (Homo sapiens); item: `CC(C)CN1C(=O)SC(=Cc2ccccc2OC(=O)N2CCOCC2)C1=O`
-0.37

====

target: CB2 receptor (Homo sapiens); construct: expressed in transfected cells; assay: Calcium mobilization assay, agonist mode, CHO expressing CB2 and Gα16; assay type: cell-based; conditions: single independent experiment, replicate 2; read-out: CB2 agonist(μM) replicate 2
measuredProperty: EC50 (µM)
Numbers only here, please. The scale is µM.

Query the reported EC50 for CB2 receptor (Homo sapiens); item: `CC(C)N1C(=O)SC(=Cc2ccccc2OC(=O)C2CCCCCC2)C1=O`
0.638

Query the reported EC50 for CB2 receptor (Homo sapiens); item: `CC(C)N1C(=O)SC(=Cc2ccccc2OCc2ccccc2F)C1=O`
0.026

Query the reported EC50 for CB2 receptor (Homo sapiens); item: `CC(C)N1C(=O)SC(=Cc2ccccc2OCc2ccccc2C#N)C1=O`
7.47

Query the reported EC50 for CB2 receptor (Homo sapiens); item: `CC(C)N1C(=O)SC(=Cc2ccccc2OC(=O)C(C)(C)CCl)C1=O`
2.61

Query the reported EC50 for CB2 receptor (Homo sapiens); item: `COc1ccc(C=C2SC(=O)N(C(C)C)C2=O)cc1OC(=O)c1cccc(Br)c1`
7.56

Query the reported EC50 for CB2 receptor (Homo sapiens); item: `CC(C)CN1C(=O)SC(=Cc2ccccc2OCc2ccccc2F)C1=O`
1.18

Query the reported EC50 for CB2 receptor (Homo sapiens); item: `COc1ccc(/C=C2\SC(=O)N(C(C)C)C2=O)cc1OC(=O)C12CC3CC(CC(C3)C1)C2`
0.287

Query the reported EC50 for CB2 receptor (Homo sapiens); item: `N#Cc1ccccc1COc1ccccc1C=C1SC(=O)N(C2CCCC2)C1=O`
1.92

Query the reported EC50 for CB2 receptor (Homo sapiens); item: `COc1ccc(C=C2SC(=O)N(C(C)C)C2=O)cc1OC(=O)C(C)(C)CCl`
1.68

====

target: CB2 receptor (Homo sapiens); construct: expressed in transfected cells; experiment: Calcium mobilization assay, agonist mode, CHO expressing CB2 and Gα16; type: cell-based; conditions: single independent experiment, replicate 2; read-out: CB2 agonist(μM) replicate 2
measuredProperty: EC50
Answer with the figure and its unit, nothing else.

Given `CC(C)N1C(=O)SC(=Cc2ccccc2OC(=O)c2ccc(Cl)nc2)C1=O` , state its recorded EC50.
2.4 µM

Given `CC(C)CN1C(=O)SC(=Cc2ccccc2OCc2ccccc2C#N)C1=O` , state its recorded EC50.
8.56 µM

Given `CC(C)N1C(=O)SC(=Cc2ccccc2OC(=O)N2CCOCC2)C1=O` , state its recorded EC50.
1.31 µM

Given `CC(C)CN1C(=O)SC(=Cc2ccccc2OC(=O)N2CCOCC2)C1=O` , state its recorded EC50.
3.82 µM

Given `CC(C)CN1C(=O)S/C(=C\c2ccccc2OC(=O)C(C)(C)CCl)C1=O` , state its recorded EC50.
1.89 µM

Given `CC(C)CN1C(=O)SC(=Cc2ccccc2OC(=O)c2ccccc2F)C1=O` , state its recorded EC50.
2.26 µM

Given `CC(C)N1C(=O)S/C(=C\c2ccccc2OC(=O)c2ccccc2F)C1=O` , state its recorded EC50.
4.58 µM

Given `CC(C)N1C(=O)SC(=Cc2ccccc2OC(=O)C2CC2)C1=O` , state its recorded EC50.
6.61 µM

====

target: CB2 receptor (Homo sapiens, UniProt P34972); construct: expressed in transfected cells; assay: Calcium mobilization assay, agonist mode, CHO expressing CB2 and Gα16; type: cell-based; settings: CB2 agonist(μM) replicate 1, single independent experiment, replicate 1
Sequence (P34972 whole entry): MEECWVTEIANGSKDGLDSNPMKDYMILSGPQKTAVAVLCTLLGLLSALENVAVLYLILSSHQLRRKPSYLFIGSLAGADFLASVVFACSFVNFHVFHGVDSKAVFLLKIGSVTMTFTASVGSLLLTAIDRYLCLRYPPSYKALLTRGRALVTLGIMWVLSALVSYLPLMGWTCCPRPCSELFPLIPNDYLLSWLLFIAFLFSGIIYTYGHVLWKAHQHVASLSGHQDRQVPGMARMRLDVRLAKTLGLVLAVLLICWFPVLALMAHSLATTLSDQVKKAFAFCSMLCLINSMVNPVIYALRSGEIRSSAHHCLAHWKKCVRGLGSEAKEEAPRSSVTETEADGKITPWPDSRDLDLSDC
measuredProperty: EC50 (µM)
Numbers only here, please. The scale is µM.

Given `CC(C)N1C(=O)SC(=Cc2ccccc2OCCN2CCOCC2)C1=O` , state its recorded EC50.
0.227

====

target: UniProt P21554; test: Calcium mobilization assay, antagonist mode (CP55940 challenge), CHO expressing CB1; type: cell-based
measuredProperty: IC50

Given `CCCS(=O)(=O)Oc1cc(C=C2SC(=O)N(CC(C)C)C2=O)ccc1OC` , state its recorded IC50.
> 10 µM

====

molecular target: CB2 receptor (Homo sapiens, UniProt P34972); construct: expressed in transfected cells; assay: Calcium mobilization assay, agonist mode, CHO expressing CB2 and Gα16; format: cell-based; conditions: agonist activity, CHO expressing CB2, three independent assays, mean ± SEM; read-out: CB2 EC50
Would you mind telling me the reported EC50 of each entry?
Numbers only here, please. The scale is µM.

Query the reported EC50 for CB2 receptor (Homo sapiens, UniProt P34972); item: CC(C)N1C(=O)SC(=Cc2ccccc2OC(=O)C2CCCCCC2)C1=O [Compound 23]
0.82

Query the reported EC50 for CB2 receptor (Homo sapiens, UniProt P34972); item: CC(C)N1C(=O)SC(=Cc2ccccc2OC(=O)c2ccc(Cl)nc2)C1=O [Compound 24]
3.93

Query the reported EC50 for CB2 receptor (Homo sapiens, UniProt P34972); item: CC(C)N1C(=O)SC(=Cc2ccccc2OC(=O)N2CCOCC2)C1=O [Compound 17]
0.66

Query the reported EC50 for CB2 receptor (Homo sapiens, UniProt P34972); item: CC(C)CN1C(=O)SC(=Cc2ccccc2OC(=O)c2ccccc2F)C1=O [Compound 13]
1.78

====

target: CB1 receptor (Homo sapiens, UniProt P21554); assay: Calcium mobilization assay, agonist mode, CHO expressing CB1 and Gα16; assay type: cell-based; settings: CB1 agonist(μM) replicate 2, single independent experiment, replicate 2
Sequence (P21554 whole entry): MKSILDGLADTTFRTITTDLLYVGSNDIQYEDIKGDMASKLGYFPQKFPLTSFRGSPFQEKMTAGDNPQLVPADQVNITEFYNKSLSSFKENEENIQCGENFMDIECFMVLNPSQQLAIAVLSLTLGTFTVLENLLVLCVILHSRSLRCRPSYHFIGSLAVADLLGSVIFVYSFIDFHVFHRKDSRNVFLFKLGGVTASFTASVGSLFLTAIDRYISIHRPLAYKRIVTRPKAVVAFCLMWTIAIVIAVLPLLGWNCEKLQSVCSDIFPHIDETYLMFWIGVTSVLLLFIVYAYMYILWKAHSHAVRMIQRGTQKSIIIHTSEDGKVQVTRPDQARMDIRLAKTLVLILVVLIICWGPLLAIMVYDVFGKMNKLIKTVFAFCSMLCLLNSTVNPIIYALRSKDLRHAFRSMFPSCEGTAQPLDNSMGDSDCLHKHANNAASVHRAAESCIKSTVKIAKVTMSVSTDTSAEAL
measuredProperty: EC50 (µM)
Numbers only here, please. The scale is µM.

Given CC(C)N1C(=O)SC(=Cc2ccccc2OCCN2CCOCC2)C1=O [Compound 8] , state its recorded EC50.
0.109

====

target: CB2 receptor (Homo sapiens); construct: expressed in transfected cells; experiment: Calcium mobilization assay, agonist mode, CHO expressing CB2 and Gα16; type: cell-based; conditions: agonist activity, CHO expressing CB2, three independent assays, mean ± SEM; read-out: CB2 EC50
measuredProperty: EC50 (nM)
Numbers only here, please. The scale is nM.

Given `CC(C)CN1C(=O)SC(=Cc2ccccc2OCc2ccccc2C#N)C1=O` , state its recorded EC50.
3220

Given `N#Cc1ccccc1COc1ccccc1C=C1SC(=O)N(C2CCCC2)C1=O` , state its recorded EC50.
2260

Given `CC(C)N1C(=O)SC(=Cc2ccccc2OC(=O)C(C)(C)CCl)C1=O` , state its recorded EC50.
2330

Given `CC(C)N1C(=O)S/C(=C\c2ccccc2OC(=O)c2ccccc2F)C1=O` , state its recorded EC50.
3640

Given `CC(C)N1C(=O)SC(=Cc2ccccc2OCc2ccccc2F)C1=O` , state its recorded EC50.
370

Given `COc1ccc(/C=C2\SC(=O)N(C(C)C)C2=O)cc1OC(=O)C12CC3CC(CC(C3)C1)C2` , state its recorded EC50.
830

====

Target: CB1 receptor (Homo sapiens, UniProt P21554)
Experiment: Calcium mobilization assay, antagonist mode (CP55940 challenge), CHO expressing CB1
Format: cell-based
Settings: antagonist activity, CHO expressing CB1; read-out: CB1 IC50
Protocol: Chinese hamster ovarian (CHO) cells collected from the American Type Culture Collection were maintained in Ham’s F-12K (Kaighn’s) supplemented with 100 mg/L streptomycin, 100 mg/L penicillin, and 10% fetal bovine serum (FBS) in a humidified atmosphere of 5% CO2 at 37 °C. […] A solitary colony was obtained, propagated, and assessed using a calcium mobilization assay to verify the function and expression of the transfected genes. […]
measuredProperty: IC50

Given COc1ccc(C=C2SC(=O)N(C(C)C)C2=O)cc1OC(=O)CCCCl [Compound 38] , state its recorded IC50.
> 10 µM

Given CCCS(=O)(=O)Oc1cc(C=C2SC(=O)N(C(C)C)C2=O)ccc1OC [Compound 39] , state its recorded IC50.
> 10 µM
